All values here come from a melting point compilation (Tetko et al.; mined from patent text by program, amines drawn as free bases though some values may be those of a salt).

Let's look at some compounds and their measured melting point.

Consider the following illustrative entries.
query: Look up and state reported melting point for C/C(=C\c1ccc(NC(=O)c2cc([Si](C)(C)C)cc([Si](C)(C)C)c2)cc1F)C(=O)O
result: 213 to 215 °C

query: Look up and state reported melting point for Cc1ccc(Cc2cnc(NCCN(Cc3ccccc3)c3ccccn3)[nH]c2=O)cn1
result: 178 to 182 °C

New cases:
query: Look up and state reported melting point for CN(C)c1ccc(/C=C/c2ccc(F)c(F)c2)cc1
result: 159 to 160 °C

* * *

Let's look at some compounds and their measured melting point.

query: Look up and state reported melting point for C=C(C)C(=O)O[C@H]1C[C@@H](C(=O)OC)[C@]2(C)CC[C@H]3C(=O)O[C@H](c4ccoc4)C[C@]3(C)[C@H]2C1=O
result: 196 to 199 °C

query: Look up and state reported melting point for CCOCc1nc2c(N)nc(C)c(C)c2n1CCC1CCN(Cc2ccccc2)CC1
result: 165 to 167 °C

query: Look up and state reported melting point for C=C(CO)[C@H](C(=O)OC(c1ccccc1)c1ccccc1)N1C(=O)[C@@H]2N=C(c3ccccc3)O[C@@H]21
result: 100 to 104 °C

query: Look up and state reported melting point for CCOC(=O)c1nc(-c2ccc(Cl)cc2F)cc(N)c1OCC(F)(F)F
result: 123 to 135 °C

query: Look up and state reported melting point for CCOC(=O)Nc1cc(N(C)C)nc2nc(=O)on12
result: 230 to 240 °C

Let's switch to this compound now.
query: Look up and state reported melting point for Cc1c(Cl)nn(-c2ccc(Cl)cc2)c1Cl
result: 90 to 91.5 °C

* * *

REPORTED_ENDPOINT: melting point

query: Look up and state reported melting point for CCOC(=O)c1cc2c(C(=O)CN(Cc3ccccc3)C(C)(C)C)ccc(OCc3ccccc3)c2[nH]1
result: 155 to 157 °C

query: Look up and state reported melting point for Nc1cccc(-c2cccc(-c3nc(-c4ccc(C(F)(F)F)cc4)cc(C(F)(F)F)n3)c2)c1
result: 156 °C

query: Look up and state reported melting point for CCC(C)(C)c1cc(-c2cccc(C=C3SC(N4CCOCC4)=NC3=O)c2)cc(F)c1O
result: 206 to 208 °C

New cases:
query: Look up and state reported melting point for O=[N+]([O-])c1oc2c(CC(CO)CO)cccc2c1-c1ccccc1
result: 166 to 168 °C

query: Look up and state reported melting point for CCCOc1ccc(C(=O)O)cc1C(C)=O
result: 165 to 169 °C

* * *

REPORTED_ENDPOINT: melting point

Consider the following illustrative entries.
query: Look up and state reported melting point for Cc1nc(-n2cnn(CC3CC3)c2=O)sc1C(=O)NCc1ccccn1
result: 160 to 161 °C

query: Look up and state reported melting point for Cc1c(NC(=O)c2ccc(-c3ccc(F)cc3)cc2)ccc2cc(CN3CCCCCC3)cnc12
result: 166 to 168 °C

query: Look up and state reported melting point for COc1cccc(NC(=O)[C@H](CC(=O)OC(C)(C)C)NC(=O)OCc2ccccc2)c1
result: 68 to 69 °C

query: Look up and state reported melting point for COc1cc(-c2ccc(S(C)(=O)=O)cc2)c(-c2ccc(F)cc2)c(C(F)(F)F)n1
result: 166 to 168 °C

Let's switch to this molecule now.
query: Look up and state reported melting point for CC1(N)CN(c2c(F)cc3c(=O)c(C(=O)O)cn(-c4ccc(F)cc4F)c3c2F)C1
result: 185 to 186 °C

* * *

REPORTED_ENDPOINT: melting point

Consider the following illustrative entries.
query: Look up and state reported melting point for CCOc1nc(N)nc(N2CCc3ccccc3CC2)c1C#N
result: 195 to 203 °C

query: Look up and state reported melting point for CCC1Cc2c(N3CCOCC3)c(F)cc3c(=O)c(C(=O)O)cn1c23 (configuration not stated)
result: 275 to 278 °C

query: Look up and state reported melting point for Clc1ccccc1C(Cl)(c1ccccc1)c1ccccc1
result: 131 °C

query: Look up and state reported melting point for COc1ccc2c(c1)C(=O)N(C)C(C(Cl)(Cl)Cl)O2 (configuration not stated)
result: 107 to 110 °C

query: Look up and state reported melting point for COC(=O)CCc1ccc(N2CCN(c3ccc4c(c3)CCC4=O)C2=O)cc1
result: 204 to 206 °C

New cases:
query: Look up and state reported melting point for CCCCCCCCCCCCCCCCCC(O)c1ccc(O)c(C(=O)O)c1 (configuration not stated)
result: 102 °C

query: Look up and state reported melting point for O=C(Nc1cccc(S(=O)(=O)C(F)(F)F)c1)c1cnn2c(C(F)(F)F)cc(-c3ccc(C(F)(F)F)cc3)nc12
result: 207 °C

query: Look up and state reported melting point for COc1ccc(C(=O)C2CCN(C(C)=O)CC2)c(O)c1
result: 138 to 140 °C

query: Look up and state reported melting point for CC(C)c1ccc(Cn2nnnc2-c2ccc(OC(=O)C(C)(C)C)cc2)cc1
result: 111 to 113 °C

query: Look up and state reported melting point for CC(C)(C)c1cc(Cn2nc(C=Cc3nn(Cc4cc(C(C)(C)C)c(O)c(C(C)(C)C)c4)c(=O)o3)oc2=O)cc(C(C)(C)C)c1O
result: 263 °C

query: Look up and state reported melting point for Cc1cc(Cc2cc(C(C)(C)CC(C)(C)C)cc(C(C)(C)CC(C)(C)C)c2O)c(O)c(-n2nc3ccccc3n2)c1
result: 138 °C

query: Look up and state reported melting point for O=C(Nc1ccc2c(c1)CCC2=O)c1ccc(-c2ccccc2)cc1
result: 217 to 219 °C

* * *

Let's look at some compounds and their measured melting point.

query: Look up and state reported melting point for CCOC(=O)c1cc(Cl)c(-n2nc(CC)c(C(N)=O)c2N)c(Cl)c1
result: 194 to 196 °C

query: Look up and state reported melting point for COc1nc(O)nn1C(C)C
result: 102 to 103 °C

query: Look up and state reported melting point for COc1cc(S(=O)(=O)c2ccncc2)ccc1[N+](=O)[O-]
result: 123 to 124 °C

New cases:
query: Look up and state reported melting point for Cn1c(=O)c2c(nc(N3CCC(NC(=O)OC(C)(C)C)C3)n2Cc2ccccc2Br)n(C)c1=O (stereo unspecified)
result: 104 to 106 °C

query: Look up and state reported melting point for Cc1ccc(S(=O)(=S)OCC2CC2)cc1 (stereo unspecified)
result: 46 to 48 °C

query: Look up and state reported melting point for O=C(c1ccc(F)cc1)c1ccc(C#Cc2ccc(F)cc2)cc1
result: 190 to 191 °C

* * *

Let's look at some compounds and their measured melting point.

query: Look up and state reported melting point for CCS(=O)(=O)c1cn(C)c2ccccc2c1=O
result: 164 to 166 °C

Let's switch to this compound now.
query: Look up and state reported melting point for COc1ccc(OC)c(C(=O)Cl)c1
result: 36 to 38 °C

* * *

Let's look at some compounds and their measured melting point.

Consider the following illustrative entries.
query: Look up and state reported melting point for COC1(c2cc(F)cc(Sc3ccc4c(c3)C=CC4=NO)c2)CCOCC1
result: 124 to 136 °C

query: Look up and state reported melting point for Nc1ncnc2c1c(-c1cc(F)c(O)c(F)c1)nn2Cc1oc2ccc(F)cc2c(=O)c1-c1cccc(F)c1
result: 274 to 278 °C

query: Look up and state reported melting point for CN(C)CCSc1c2ccccc2c(-c2cc(Br)c(O[C@H](Cc3ccccc3)C(=O)O)c(Br)c2)c2c1sc1ccccc12
result: 169 to 174 °C

query: Look up and state reported melting point for COc1ccc2sc(C(=O)OCc3ccccc3)c(OCc3ccccc3)c2c1
result: 66 to 67 °C

query: Look up and state reported melting point for CCn1ncc2c3noc(-c4ccc(F)cc4)c3cnc21
result: 222 to 223 °C

query: Look up and state reported melting point for CCCc1cc(F)c2oc(Cc3ccc(OC)cc3)c(C)c2c1OC(=O)OCC
result: 85 to 88 °C

query: Look up and state reported melting point for O=C(Nc1ccc(Cl)cn1)c1cc(Cl)ccc1NCC1CCN(C(=O)N2CCOCC2)CC1
result: 105 to 107 °C

query: Look up and state reported melting point for Nc1ccn(C2CC(O)C(CO)O2)c(=O)c1F (stereo not drawn)
result: 161 to 163 °C

query: Look up and state reported melting point for CC1(C)Cc2ccc(F)cc2C=[N+]1[O-]
result: 88 to 90 °C

query: Look up and state reported melting point for COC(=O)c1ccc2cc(C=O)ccc2c1
result: 127 °C

New cases:
query: Look up and state reported melting point for CC(=O)OC1Cc2ccccc2N(C(N)=O)c2ccccc21 (stereo not drawn)
result: 185 °C

query: Look up and state reported melting point for CCOC(=O)C1CNc2cc([N+](=O)[O-])ccc2O1 (stereo not drawn)
result: 88 to 90 °C

query: Look up and state reported melting point for C=CCOc1cc(C(O)CS(C)(=O)=O)cc(OCC=C)c1NC(C)=O (stereo not drawn)
result: 162 °C

query: Look up and state reported melting point for Clc1ccc(C2CN(C(c3ccccc3)c3ccccc3)C2)cc1
result: 82 °C

query: Look up and state reported melting point for Cn1cc(-c2cccc(N3Cc4cc(C(C)(C)C)ccc4C3=O)c2CO)nc(Nc2cnn(C3CC3)c2)c1=O
result: 218 to 219 °C

query: Look up and state reported melting point for CCc1nc2c(N)nc3cc(/C=C/C(=O)N4CCOCC4)ccc3c2n1CC1CCOCC1
result: > 260 °C

query: Look up and state reported melting point for CC(=O)CCCc1c[nH]c2ccccc12
result: 89 to 90 °C

query: Look up and state reported melting point for CCOC(=S)c1cccc2nnsc12
result: 114 to 115 °C

query: Look up and state reported melting point for COc1ccc(Cl)cc1C(=O)Nc1ccc(CC(=O)O)cc1
result: 152 °C

query: Look up and state reported melting point for CCOC(=O)c1cnc2cc(Cl)c(F)cc2c1O
result: 283 to 290 °C

query: Look up and state reported melting point for Nc1ccc(CNc2n[nH]c3ncnc(Nc4cccc(Cl)c4)c23)cc1
result: 170 to 171 °C

query: Look up and state reported melting point for COc1ccc(-c2cncc(OC3SCC(OC(C)=O)C(OC(C)=O)C3OC(C)=O)c2)cn1 (stereo not drawn)
result: 172 °C

query: Look up and state reported melting point for CN1C(=O)CC[C@]2(C)c3ccc(C(=O)Oc4ccccc4)cc3CC[C@@H]12
result: 194 to 196 °C

query: Look up and state reported melting point for Cc1ccc(C(=O)NCc2cc(C(C)C)no2)cc1
result: 107 to 116 °C

query: Look up and state reported melting point for Nc1cccc(-c2ccc(C3CCN(Cc4ccc5c(c4)OCO5)CC3)cc2)n1
result: 150 to 165 °C

query: Look up and state reported melting point for CNS(=O)(=O)c1nc2ccc(O)cc2s1
result: 189 to 190 °C

query: Look up and state reported melting point for CN(C)C1CC2=CNC=C3C=C(C=O)OCC1=C32 (stereo not drawn)
result: 175 to 176 °C

query: Look up and state reported melting point for Cc1c(Cl)nnc(Cl)c1C
result: 80 to 82 °C
